- MEASUREMENT_TARGET: KRas G12D mutant (Homo sapiens (Human), UniProt P01116, G12D)
- Sequence (P01116 other isoform, or with tags, fused parts or gaps G12D): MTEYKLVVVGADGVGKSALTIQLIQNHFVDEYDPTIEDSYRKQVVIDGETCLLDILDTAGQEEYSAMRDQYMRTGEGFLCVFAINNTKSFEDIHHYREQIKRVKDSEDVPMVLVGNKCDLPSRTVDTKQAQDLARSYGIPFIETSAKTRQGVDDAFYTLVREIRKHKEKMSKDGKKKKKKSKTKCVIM
- ASSAY_NAME: Ras GTP Binding Domain Inhibition Assay, KRas G12D mutant
- REPORTED_CONDITIONS: 20 uM; + SOS; Table 8
QUANTITY_NAME: KRas G12D mutant + SOS: % inh.

Exercise: Please report the recorded KRas G12D mutant + SOS: % inh. for COCCCCOc1nc(-c2nccn2C)nc2sc(-c3ccn(C(C)C)n3)c(C)c12 [Compound 34] .
Key: 0 (0 = 0% inhibition)

---

- Tested on: MiaPaca2
- ASSAY_NAME: MiaPaca2 proliferation
- Type: cell-based
- REPORTED_CONDITIONS: Homo sapiens, MIA PaCa-2; 10 μM; read-out: % inh of proliferation in MiaPaca2
The molecules listed here are annotated with their inhibition at 10 µM.

The examples below pair each entry with its known result.
>>> result("COCCn1c(-c2nccn2C)nc2sc(-c3ccn(C(C)C)n3)c(C)c2c1=O")
"46 to 75%"
>>> result("COCCOCCNc1nc(-c2nccn2C)nc2sc(-c3ccn(C(C)C)n3)c(C)c12")
"76 to 100%"
>>> result("COc1nccc(-c2sc3nc(-c4nccn4C)nc(N[C@H]4C[C@H](OC)C4)c3c2-c2ccccc2)c1F")
"76 to 100%"
>>> result("COc1cc(-c2sc3nc(-c4nccn4C)nc(N[C@H]4C[C@H](OC)C4)c3c2-c2ccccc2)ccn1")
"76 to 100%"

Exercise: Please report the recorded inhibition at 10 µM for COc1cccc(-c2sc3nc(-c4nccn4C)nc(N[C@H]4C[C@H](OC)C4)c3c2C)c1F .
Key: 76 to 100%

Exercise: What value of inhibition at 10 µM has been reported for the following molecule? COCCn1ccc(-c2sc3nc(-c4nccn4C)nc(N[C@@H]4CC[C@H](OC)C4)c3c2C)n1 (racemic)
Key: 76 to 100%

Exercise: Endpoint output: inhibition at 10 µM of COCCOc1nc(-c2nccn2C)nc2sc(-c3ccn(C(C)C)n3)c(C)c12 . Value?
Key: 1 to 25%

Exercise: So what does the record say about inhibition at 10 µM for Cc1c(-c2ccn(C(C)C)n2)sc2nc(-c3nccn3C)nc(NCC3CCCO3)c12 (racemic) ?
Key: 46 to 75%

Exercise: Which inhibition at 10 µM value is on record for COCCCOc1nc(-c2nccn2C)nc2sc(-c3ccn(C(C)C)n3)c(-c3ccccc3)c12 ?
Key: 1 to 25%

Exercise: Which inhibition at 10 µM is reported for this molecule? COc1cc(Nc2nc(-c3nccn3C)nc3sc(-c4ccn(C(C)C)n4)c(C)c23)ncn1
Key: 76 to 100%
